- measurementTarget: human TLR9 (Homo sapiens (Human))
- Sequence (Q9NR96 26-1032): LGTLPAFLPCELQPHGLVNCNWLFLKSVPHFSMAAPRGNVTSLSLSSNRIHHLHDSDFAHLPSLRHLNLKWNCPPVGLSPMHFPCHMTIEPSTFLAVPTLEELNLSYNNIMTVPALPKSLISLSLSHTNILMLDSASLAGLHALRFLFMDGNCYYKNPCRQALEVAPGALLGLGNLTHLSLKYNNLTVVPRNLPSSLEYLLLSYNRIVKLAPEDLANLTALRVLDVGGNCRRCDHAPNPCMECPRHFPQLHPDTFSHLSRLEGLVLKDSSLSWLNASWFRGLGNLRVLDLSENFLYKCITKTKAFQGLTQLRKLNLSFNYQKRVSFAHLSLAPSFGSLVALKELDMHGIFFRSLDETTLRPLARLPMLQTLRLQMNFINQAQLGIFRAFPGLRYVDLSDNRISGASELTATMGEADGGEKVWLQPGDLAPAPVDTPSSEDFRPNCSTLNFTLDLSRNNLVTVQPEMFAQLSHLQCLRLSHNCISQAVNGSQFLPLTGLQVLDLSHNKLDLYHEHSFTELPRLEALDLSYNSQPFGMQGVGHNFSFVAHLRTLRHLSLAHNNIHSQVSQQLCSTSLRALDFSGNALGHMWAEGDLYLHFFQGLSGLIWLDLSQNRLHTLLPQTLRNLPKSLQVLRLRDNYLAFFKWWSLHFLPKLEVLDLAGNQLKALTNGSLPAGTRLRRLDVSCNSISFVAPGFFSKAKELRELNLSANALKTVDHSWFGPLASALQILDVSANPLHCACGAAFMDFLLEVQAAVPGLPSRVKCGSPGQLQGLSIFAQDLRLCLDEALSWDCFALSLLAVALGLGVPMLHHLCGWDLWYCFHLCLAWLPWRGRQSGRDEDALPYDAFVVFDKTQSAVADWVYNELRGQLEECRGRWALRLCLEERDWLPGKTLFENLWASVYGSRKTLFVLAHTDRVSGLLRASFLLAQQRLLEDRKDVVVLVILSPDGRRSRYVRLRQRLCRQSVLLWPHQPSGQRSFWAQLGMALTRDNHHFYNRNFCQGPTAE
- testMethodNotes: TLR9 inhibition reporter assay (HEK-Blue SEAP);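 also: SEAP driven by IFN-β minimal promoter carrying five NF-κB and AP-1 sites, 22 h at 37 °C, compounds 0.05 nM–50 µM, inhibition scaled between agonist-plus-DMSO and reference-inhibitor wells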
- protocolConditions: read-out: TLR9 IC50; HEK-Blue cells overexpressing human TLR9, ODN2006 5 nM stimulation, SEAP reporter
readoutType: IC50 (nM)

(a) Cc1c(-c2[nH]c3cnc(N4CCN(C(C)C)CC4)c(F)c3c2C(C)C)cn2ncnc2c1C
(b) Cc1c(-c2[nH]c3cnc(C4CCC(N5CC6(COC6)C5)CC4)c(F)c3c2C(C)C)cn2ncnc2c1C (stereo not drawn)
(c) COc1cc(-c2[nH]c3cnc(C4CCN(CCS(C)(=O)=O)CC4)c(F)c3c2C(C)C)cn2ncnc12
(d) COc1cc(-c2[nH]c3cnc(N4CCN(C(C)C)CC4)c(F)c3c2C(C)C)cn2ncnc12
(e) Cc1cc(-c2[nH]c3cnc(C4CCNCC4)c(F)c3c2C(C)C)cn2ncnc12
Query: With the 5 compounds above, produce a list ordered by ascending IC50. When ranking, write the labels in the order the request describes.
Result: b, e, d, a, c
(b: 1010 nM, e: 1870 nM, d: 3260 nM, a: 5740 nM, c: 13000 nM)

====

- measurementTarget: human TLR8 (Homo sapiens (Human), UniProt Q9NR97)
- Sequence (Q9NR97 27-1041): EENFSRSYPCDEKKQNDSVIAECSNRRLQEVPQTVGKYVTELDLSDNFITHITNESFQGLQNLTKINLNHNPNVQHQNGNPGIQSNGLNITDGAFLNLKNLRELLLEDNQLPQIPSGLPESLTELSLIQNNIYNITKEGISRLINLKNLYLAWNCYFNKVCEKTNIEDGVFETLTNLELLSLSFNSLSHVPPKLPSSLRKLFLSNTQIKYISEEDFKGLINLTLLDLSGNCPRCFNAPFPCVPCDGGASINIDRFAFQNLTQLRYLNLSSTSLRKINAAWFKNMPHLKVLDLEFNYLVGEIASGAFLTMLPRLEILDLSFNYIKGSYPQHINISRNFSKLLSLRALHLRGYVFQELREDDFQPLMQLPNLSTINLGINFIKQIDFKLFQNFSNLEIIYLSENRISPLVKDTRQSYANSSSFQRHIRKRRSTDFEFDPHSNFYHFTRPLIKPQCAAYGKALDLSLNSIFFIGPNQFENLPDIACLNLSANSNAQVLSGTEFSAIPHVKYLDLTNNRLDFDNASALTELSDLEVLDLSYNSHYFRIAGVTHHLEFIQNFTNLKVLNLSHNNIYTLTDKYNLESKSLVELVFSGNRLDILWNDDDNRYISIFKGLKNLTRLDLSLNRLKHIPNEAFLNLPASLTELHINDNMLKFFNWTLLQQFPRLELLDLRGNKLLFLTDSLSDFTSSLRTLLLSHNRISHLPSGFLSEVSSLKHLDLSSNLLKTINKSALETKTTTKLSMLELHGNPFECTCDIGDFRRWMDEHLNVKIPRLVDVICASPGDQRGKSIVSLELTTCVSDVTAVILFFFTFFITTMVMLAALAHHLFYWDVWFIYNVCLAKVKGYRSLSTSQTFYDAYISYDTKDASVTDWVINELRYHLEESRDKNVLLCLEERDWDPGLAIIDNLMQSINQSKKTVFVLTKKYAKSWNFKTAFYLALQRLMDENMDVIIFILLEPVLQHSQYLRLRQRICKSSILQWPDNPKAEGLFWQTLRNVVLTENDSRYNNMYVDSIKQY
- testMethodNotes: TLR8 inhibition reporter assay (HEK-Blue SEAP)
- protocolConditions: read-out: TLR8 IC50; HEK-Blue cells overexpressing human TLR8, R848 15.9 μM stimulation, SEAP reporter
readoutType: IC50 (µM)

CNC(=O)CN1CCN(c2ncc3[nH]c(-c4cc(OC)c5ncnn5c4)c(C(C)C)c3c2F)[C@H](C)C1 [Example 445] | 0.025

(A) CCN(C)C1CCC(c2ncc3[nH]c(-c4cc(OC)c5ncnn5c4)c(C(C)C)c3c2F)CC1 (centres unmarked) [Example 77]
(B) COc1cc(-c2[nH]c3cnc(C4CCC(N5CC(OC)C5)CC4)c(C)c3c2C(C)C)cn2ncnc12 (centres unmarked) [Example 62]
Query: Out of A and B , name the one with the higher IC50. Please indicate the selected item by its label.
Result: B

(a) Cc1c(-c2[nH]c3cnc(C4CCC(NCC(C)(C)O)CC4)c(C)c3c2C(C)C)cn2ncnc2c1C (centres unmarked) [Example 122]
(b) COc1cc(-c2[nH]c3cnc(C4CCC(NC5COC5)C4)cc3c2C(C)C)cn2ncnc12 (centres unmarked) [Example 93]
Query: Field: entry with larger IC50 (options a / b ). Answer by stating the label of the chosen item.
Result: b

(1) COc1cc(-c2[nH]c3cnc(C4CCC(N(C)C)CC4)cc3c2C(C)C)cn2ncnc12 (centres unmarked) [Example 340]
(2) COc1cc(-c2[nH]c3cnc(C4CCC(NCC(C)(C)O)CC4)c(F)c3c2C(C)C)cn2ncnc12 (centres unmarked) [Example 195]
Query: Between 1 and 2 , which one has the lower reported IC50 value? Which one? Tell me its label.
Result: 2

====

- measurementTarget: human TLR8 (Homo sapiens (Human), UniProt Q9NR97)
- testMethodNotes: TLR8 inhibition reporter assay (HEK-Blue SEAP);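 also: SEAP driven by IFN-β minimal promoter with five NF-κB and AP-1 sites, compounds tested 0.05 nM to 50 µM, 22 h incubation, inhibition relative to agonist plus DMSO wells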
- protocolConditions: read-out: TLR8 IC50; HEK-Blue cells overexpressing human TLR8, R848 15.9 μM stimulation, SEAP reporter
readoutType: IC50 (nM)

Cc1cc(-c2[nH]c3cnc(C4CCN(CC(=O)N(C)C)CC4)cc3c2C(C)C)cn2ncnc12 | 25
Cc1c(-c2[nH]c3cnc(C4CCC(NC5COC5)CC4)cc3c2C(C)C)cn2ncnc2c1C (centres unmarked) [Example 334] | 1.4
Cc1c(N2CCC(NC3COC3)CC2)ncc2[nH]c(-c3cc(C)c4ncnn4c3)c(C(C)C)c12 | 1.4
COc1cc(-c2[nH]c3cnc(C4CCN(CC(N)=O)CC4)c(F)c3c2C(C)C)cn2ncnc12 | 3

(1) CNCC(=O)N1CCC(c2ncc3[nH]c(-c4cc(OC)c5ncnn5c4)c(C(C)C)c3c2C)CC1
(2) Cc1c(N2CCC(N3CCOCC3)CC2)ncc2[nH]c(-c3cc(C)c4ncnn4c3)c(C(C)C)c12
(3) Cc1c(-c2[nH]c3cnc(C4CCC(NC(C)C)CC4)c(C)c3c2C(C)C)cn2ncnc2c1C (centres unmarked) [Example 277]
Query: Output the entries ranked by IC50 from maximum down to minimum. Note for the reader: the ranking is given by listing the labels in the order requested.
Result: 1, 3, 2
(1: 273 nM, 3: 13 nM, 2: 0.97 nM)
